experiment: Saturation solubility of fulvestrant in combinations of solvents/detergents (Table 2); assay type: physicochemical; settings: solvent/detergent mixture, oil or lipid, thermodynamic from solid, No 1 (% w/v): 99% Oleic Acid, 1% Poly. 20; read-out: Solubility
assay endpoint: solubility (µg/mL)
Give the value, in units of µg/mL, as a plain number.

Challenge: State, in one line, measured solubility of C[C@]12CC[C@@H]3c4ccc(O)cc4C[C@@H](CCCCCCCCC[S+]([O-])CCCC(F)(F)C(F)(F)F)[C@H]3[C@@H]1CC[C@@H]2O (stereo partly shown)
Response given: 4080

----------
test: Saturation solubility of fulvestrant in combinations of solvents/detergents (Table 2); format: physicochemical; conditions: 85% castor oil, 12% BA, 3% HP-B-CD (% w/v), oil or lipid, thermodynamic from solid, No 15 (% w/v): 85% Castor Oil, 12% BA, 3% HP-B-CD; read-out: Solubility
assay endpoint: solubility (mg/mL)
Give the value, in units of mg/mL, as a plain number.

Challenge: State, in one line, measured solubility of C[C@]12CC[C@@H]3c4ccc(O)cc4C[C@@H](CCCCCCCCC[S+]([O-])CCCC(F)(F)C(F)(F)F)[C@H]3[C@@H]1CC[C@@H]2O (stereo partly shown) [Fulvestrant]
Response given: 17.2

----------
assay: Saturation solubility of fulvestrant in combinations of solvents/detergents (Table 2); type: physicochemical; conditions: 50% oleic acid, 25% ethanol, 25% Cremophor 40 (% w/v), oil or lipid, thermodynamic from solid, No 8 (% w/v): 50% Oleic Acid, 25% Ethanol, 25% Cremophor 40; read-out: Solubility
assay endpoint: solubility
Could you give the number and then its unit, please?

Challenge: State, in one line, measured solubility of C[C@]12CC[C@@H]3c4ccc(O)cc4C[C@@H](CCCCCCCCC[S+]([O-])CCCC(F)(F)C(F)(F)F)[C@H]3[C@@H]1CC[C@@H]2O (stereo partly shown) [Fulvestrant]
Response given: 130 mg/mL

----------
test: physchem; conditions: oleic acid, oil or lipid
assay endpoint: solubility (µg/mL)
Give the value, in units of µg/mL, as a plain number.

Challenge: State, in one line, measured solubility of C[C@]12CC[C@@H]3c4ccc(O)cc4C[C@@H](CCCCCCCCC[S+]([O-])CCCC(F)(F)C(F)(F)F)[C@H]3[C@@H]1CC[C@@H]2O (stereo partly shown)
Response given: 4800

----------
assay: Saturation solubility of fulvestrant in combinations of solvents/detergents (Table 2); format: physicochemical; conditions: 12.5% ethanol, 75% castor oil, 12.5% Cremophor RH 40 (% w/v), oil or lipid, thermodynamic from solid, No 11 (% w/v): 12.5% Ethanol, 75% Castor Oil, 12.5% Cremophor RH 40; read-out: Solubility
assay endpoint: solubility (mg/mL)
Give the value, in units of mg/mL, as a plain number.

Challenge: State, in one line, measured solubility of C[C@]12CC[C@@H]3c4ccc(O)cc4C[C@@H](CCCCCCCCC[S+]([O-])CCCC(F)(F)C(F)(F)F)[C@H]3[C@@H]1CC[C@@H]2O (stereo partly shown)
Response given: 128

----------
assay: physchem; details: octanoic acid, organic solvent or mixture
assay endpoint: solubility (mg/mL)
Give the value, in units of mg/mL, as a plain number.

Challenge: State, in one line, measured solubility of C[C@]12CC[C@@H]3c4ccc(O)cc4C[C@@H](CCCCCCCCC[S+]([O-])CCCC(F)(F)C(F)(F)F)[C@H]3[C@@H]1CC[C@@H]2O (stereo partly shown)
Response given: 92.2

----------
assay: Saturation solubility of fulvestrant in combinations of solvents/detergents (Table 2); type: physicochemical; details: solvent mixture, oil or lipid, thermodynamic from solid; No 3 (% w/v): 50% Castor Oil, 50% Oleic Acid; read-out: Solubility
assay endpoint: solubility (mg/mL)
Give the value, in units of mg/mL, as a plain number.

Challenge: State, in one line, measured solubility of C[C@]12CC[C@@H]3c4ccc(O)cc4C[C@@H](CCCCCCCCC[S+]([O-])CCCC(F)(F)C(F)(F)F)[C@H]3[C@@H]1CC[C@@H]2O (stereo partly shown)
Response given: 20

----------
test: physchem; conditions: hexanoic acid, organic solvent or mixture
assay endpoint: solubility (mg/mL)
Give the value, in units of mg/mL, as a plain number.

Challenge: State, in one line, measured solubility of C[C@]12CC[C@@H]3c4ccc(O)cc4C[C@@H](CCCCCCCCC[S+]([O-])CCCC(F)(F)C(F)(F)F)[C@H]3[C@@H]1CC[C@@H]2O (stereo partly shown) [Fulvestrant]
Response given: 266

----------
assay: physchem; settings: PEG 300, organic solvent or mixture
assay endpoint: solubility (mg/mL)
Give the value, in units of mg/mL, as a plain number.

Challenge: State, in one line, measured solubility of C[C@]12CC[C@@H]3c4ccc(O)cc4C[C@@H](CCCCCCCCC[S+]([O-])CCCC(F)(F)C(F)(F)F)[C@H]3[C@@H]1CC[C@@H]2O (stereo partly shown)
Response given: 28.3

----------
assay: physchem; settings: butyric acid, organic solvent or mixture
assay endpoint: solubility (mg/mL)
Give the value, in units of mg/mL, as a plain number.

Challenge: State, in one line, measured solubility of C[C@]12CC[C@@H]3c4ccc(O)cc4C[C@@H](CCCCCCCCC[S+]([O-])CCCC(F)(F)C(F)(F)F)[C@H]3[C@@H]1CC[C@@H]2O (stereo partly shown) [Fulvestrant]
Response given: 318

----------
assay: Saturation solubility of fulvestrant in combinations of solvents/detergents (Table 2); assay type: physicochemical; settings: oil or lipid, thermodynamic from solid, No 7 (% w/v): 74.5% Oleic Acid, 24.5% Castor Oil, 1% Polysorbate 20; read-out: Solubility
assay endpoint: solubility (mg/mL)
Give the value, in units of mg/mL, as a plain number.

Challenge: State, in one line, measured solubility of C[C@]12CC[C@@H]3c4ccc(O)cc4C[C@@H](CCCCCCCCC[S+]([O-])CCCC(F)(F)C(F)(F)F)[C@H]3[C@@H]1CC[C@@H]2O (stereo partly shown) [Fulvestrant]
Response given: 15.7
